- study.system: hD3R (Homo sapiens)
- Sequence (P35462 whole entry): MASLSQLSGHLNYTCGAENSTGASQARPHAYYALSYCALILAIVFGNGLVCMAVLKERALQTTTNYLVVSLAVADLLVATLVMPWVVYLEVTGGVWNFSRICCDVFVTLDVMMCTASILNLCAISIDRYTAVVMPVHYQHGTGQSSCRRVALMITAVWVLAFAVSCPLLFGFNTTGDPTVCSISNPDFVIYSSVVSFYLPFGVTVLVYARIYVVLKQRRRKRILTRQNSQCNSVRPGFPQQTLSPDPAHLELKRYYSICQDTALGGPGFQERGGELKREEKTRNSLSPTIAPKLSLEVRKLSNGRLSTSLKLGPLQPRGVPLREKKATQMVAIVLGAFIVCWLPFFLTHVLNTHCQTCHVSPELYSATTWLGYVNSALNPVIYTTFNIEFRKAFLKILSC
pKi: −log10 of the molar value.
observation.type: pKi

> print(dat)
                              sample.smiles         study.system  value.observed
1  CN1CCC(N(Cc2ccc(F)cc2)C(=O)NCc2ccc(OCCCN3CCCCC3)cc2)CC1  hD3R (Homo sapiens)          < 5.00

* * *

- study.system: human D2L (Homo sapiens)
- Sequence (P14416 whole entry): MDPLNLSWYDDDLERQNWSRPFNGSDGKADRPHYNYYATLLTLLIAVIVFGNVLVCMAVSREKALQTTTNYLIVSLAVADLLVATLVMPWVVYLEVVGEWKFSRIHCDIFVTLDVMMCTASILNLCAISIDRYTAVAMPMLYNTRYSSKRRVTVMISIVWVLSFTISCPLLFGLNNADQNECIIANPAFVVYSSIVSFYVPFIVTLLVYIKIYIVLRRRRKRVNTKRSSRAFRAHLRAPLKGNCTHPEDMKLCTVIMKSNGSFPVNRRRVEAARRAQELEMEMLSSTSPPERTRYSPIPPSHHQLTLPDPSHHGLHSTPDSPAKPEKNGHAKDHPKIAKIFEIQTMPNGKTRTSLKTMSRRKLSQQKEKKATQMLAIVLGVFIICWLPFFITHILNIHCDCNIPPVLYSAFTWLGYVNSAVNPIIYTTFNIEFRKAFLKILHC
pKi: −log10 of the molar value.
observation.type: pKi

> print(dat)
                              sample.smiles  observation.type  value.observed
1  CN1CCC(N(Cc2ccc(F)cc2)C(=O)NCc2ccc(OCCCN3CCCCC3)cc2)CC1               pKi          < 5.00

* * *

- study.system: hH1R (Homo sapiens, UniProt P35367)
- Sequence (P35367 whole entry): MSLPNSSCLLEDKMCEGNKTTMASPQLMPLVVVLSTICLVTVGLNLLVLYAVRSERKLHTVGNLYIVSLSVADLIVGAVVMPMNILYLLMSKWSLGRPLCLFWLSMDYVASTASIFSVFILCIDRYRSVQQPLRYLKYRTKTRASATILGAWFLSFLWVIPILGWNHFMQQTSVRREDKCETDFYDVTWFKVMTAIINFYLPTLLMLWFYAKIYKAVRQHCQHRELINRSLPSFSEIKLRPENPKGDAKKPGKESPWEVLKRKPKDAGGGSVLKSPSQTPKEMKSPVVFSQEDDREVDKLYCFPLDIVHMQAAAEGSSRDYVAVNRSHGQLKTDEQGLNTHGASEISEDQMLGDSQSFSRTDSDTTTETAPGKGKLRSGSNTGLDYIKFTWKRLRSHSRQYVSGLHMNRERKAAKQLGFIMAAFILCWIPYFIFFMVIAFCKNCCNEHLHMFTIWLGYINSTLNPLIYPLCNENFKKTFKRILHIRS
pKi: −log10 of the molar value.
observation.type: pKi

> print(dat)
                                   molecule  value.observed
1  CN1CCC(N(Cc2ccc(F)cc2)C(=O)NCc2ccc(OCCCN3CCCCC3)cc2)CC1 [ST-2300]          < 5.30

* * *

- study.system: UniProtKB P21728
- Sequence (P21728 whole entry): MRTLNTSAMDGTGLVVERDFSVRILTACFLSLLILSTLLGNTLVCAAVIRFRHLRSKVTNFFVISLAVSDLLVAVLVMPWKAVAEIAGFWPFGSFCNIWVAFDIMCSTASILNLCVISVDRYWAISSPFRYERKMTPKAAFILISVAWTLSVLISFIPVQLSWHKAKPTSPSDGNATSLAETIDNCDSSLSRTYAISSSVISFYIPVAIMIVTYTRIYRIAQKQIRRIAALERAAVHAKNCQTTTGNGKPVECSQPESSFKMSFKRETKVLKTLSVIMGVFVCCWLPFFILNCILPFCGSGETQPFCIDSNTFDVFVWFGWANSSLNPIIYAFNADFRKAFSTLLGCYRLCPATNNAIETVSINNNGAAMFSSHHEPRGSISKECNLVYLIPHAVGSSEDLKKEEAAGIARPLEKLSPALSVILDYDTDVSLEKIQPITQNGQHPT
observation.type: Ki

> print(dat)
                              sample.smiles      study.system  value.observed
1  CN1CCC(N(Cc2ccc(F)cc2)C(=O)NCc2ccc(OCCCN3CCCCC3)cc2)CC1  UniProtKB P21728         > 10 µM

* * *

Here's a batch of molecules along with measured Ki for human 5-HT7b (Homo sapiens, UniProt P34969).
observation.type: Ki

> print(dat)
                                   molecule  observation.type  value.observed
1  CN1CCC(N(Cc2ccc(F)cc2)C(=O)NCc2ccc(OCCCN3CCCCC3)cc2)CC1 [ST-2300]                Ki         > 10 µM
2  CC(C)COc1ccc(CNC(=O)N(Cc2ccc(F)cc2)C2CCN(C)CC2)cc1 [Pimavanserin, reference compound]                Ki         > 10 µM

* * *

- study.system: human serotonin 5-HT2A receptor (Homo sapiens, UniProt P28223)
observation.type: Ki (nM)

> print(dat)
                                   molecule  observation.type   u  value.observed
1  CN1CCC(N(Cc2ccc(F)cc2)C(=O)NCc2ccc(OCCCN3CCCCC3)cc2)CC1 [ST-2300]                Ki  nM            1300
